- Test system: c-Abl (mouse)
- Assay Details: phosphorylation enrichment, bacterial display (enrichment ratio); higher = better substrate or ligand; peptides without Tyr show the background
Let's look at some sequences and their measured phosphorylation enrichment.
# respond with the number and nothing more

Biosequence | Study System | phosphorylation enrichment
DAVAVCHGKIS [SH2D1A_Y7_Y7C] | c-Abl (mouse) | 0.59
KVQVSYKGDTK [HSPA1A_Y107_E110D] | c-Abl (mouse) | 0.615
CEHRGYLFLAI [TEK_Y897_YF] | c-Abl (mouse) | 0.813

// below: phosphorylation enrichment requested for another sequence
Tell me its phosphorylation enrichment on c-Abl (mouse): FGLDHYQCDCT [PTGS1_Y54_R53H]
0.61

----------
- Study System: Fyn (UniProt P06241)
- Sequence (P06241 whole entry, looked up): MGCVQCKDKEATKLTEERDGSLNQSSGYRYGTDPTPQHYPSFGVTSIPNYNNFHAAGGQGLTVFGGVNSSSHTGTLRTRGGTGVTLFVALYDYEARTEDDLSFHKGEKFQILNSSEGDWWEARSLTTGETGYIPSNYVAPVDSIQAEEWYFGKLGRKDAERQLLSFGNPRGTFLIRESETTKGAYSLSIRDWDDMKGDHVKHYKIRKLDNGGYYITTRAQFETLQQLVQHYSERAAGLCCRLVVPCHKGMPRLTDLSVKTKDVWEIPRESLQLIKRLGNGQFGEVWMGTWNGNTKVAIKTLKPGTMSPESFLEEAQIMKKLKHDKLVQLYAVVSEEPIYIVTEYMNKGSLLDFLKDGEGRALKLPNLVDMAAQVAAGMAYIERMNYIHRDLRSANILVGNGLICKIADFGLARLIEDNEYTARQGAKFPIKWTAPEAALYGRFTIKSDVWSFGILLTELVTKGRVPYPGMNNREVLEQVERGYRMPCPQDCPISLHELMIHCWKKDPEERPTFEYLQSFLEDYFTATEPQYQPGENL
- Assay Details: phosphorylation enrichment, bacterial display (enrichment ratio); higher = better substrate or ligand; peptides without Tyr show the background
Overview of recorded phosphorylation enrichment for various sequences
Write the value as a bare number.

Recorded results for 10 sequences are shown here.
Biosequence | phosphorylation enrichment
AWVARYIFKRL [LPCAT3_Y348] | 0.502
YNNYGYGSDGF [HNRNPH3_Y161_N163S] | 0.507
LLTALYFISWG [KCNH2_Y780_R784W] | 1.59
KAIDMYLMGCF [GABRB2_Y308] | 0.515
YLEKYYKFGSR [NNMT_Y25] | 0.501
LTGIAYSLPHW [SLC22A14_Y291] | 0.921
KAEQLYIGVTV [EFHC2_Y509_E507Q] | 2.33
SHLLRYLSWTV [CLCNKB_Y93] | 0.468
YLGRDYLETLM [DUS3L_Y610] | 0.514
TENAGYYFQVS | 0.456

Identify phosphorylation enrichment associated with the sequence RLRKYYLGKYL [KLB_Y906]
0.707

Report measured phosphorylation enrichment; entry is FSCLPYGRLAF [SLC52A2_Y305_YF]
0.629

----------
Items are presented alongside their recorded phosphorylation enrichment.
- Test system: c-Src
- Assay Details: phosphorylation enrichment, bacterial display (enrichment ratio); higher = better substrate or ligand; peptides without Tyr show the background
Give the figure by itself; no unit, no explanation.

Could you please provide reported phosphorylation enrichment for RSSKMYFKTRS [LPL_Y329_L330F] ? Thanks!
0.856

Specify phosphorylation enrichment for ALAHKCHGGGG [HBB_Y146_Y146C] and stop.
0.563

Complete the entry with phosphorylation enrichment for VNYGAYINNFK [GLB1_Y488_D491N]
0.876

Hello, please tell me recorded phosphorylation enrichment for this one: RSRSSYTHGLN [MYCT1_Y116]
1.23

Return phosphorylation enrichment for the following sequence: "LANNEYYFRVC"
0.516

Indicate its recorded phosphorylation enrichment; the sequence in question is GVKLTYGDAQN [SLC28A1_Y404]
0.499

Check the records and state phosphorylation enrichment for SGRSGYCLGTR [SCO1_Y60_P58S]
0.424

Quote phosphorylation enrichment reported for SIFKDYFRFNF [PLA2G2D_Y85_YF] please.
0.643

Specify reported phosphorylation enrichment for the sequence shown: RSACTYLASHL [PLK3_Y615]
0.417

Input VTGWGYRKLRD [F11_Y521] , output reported phosphorylation enrichment.
0.479

Give recorded phosphorylation enrichment. FSGLAYTMERS [GLUD1_Y512_H507Y_YF]
0.935

Supply reported phosphorylation enrichment belonging to this sequence: LADMNYVHCDL [EPHB2_Y742_R745C]
0.369

Retrieve phosphorylation enrichment measured for ALWYIYLHTRS [ENG_Y614_S615L] and print it.
0.331

Return phosphorylation enrichment for the following sequence: AWVARYIFKRL [LPCAT3_Y348]
0.346

----------
Let's look at some sequences and their measured SH2 binding enrichment.
- Study System: SHP2-C SH2
- Assay Details: SH2 binding enrichment of the phosphorylated peptide, bacterial display (enrichment ratio); higher = better substrate or ligand; peptides without Tyr show the background
Reply with just the number.

Example sequences with recorded SH2 binding enrichment:
Biosequence | Observed Result
VNKIYYPDFIV [LIG3_Y768] | 0.697
NESVDYRATFP [MET_Y1003] | 0.693
CCNHPYLINGA [CHD7_Y1256] | 0.704
ATQDDYVLEVR [PTPRZ1_Y2179] | 0.719

Now look at this entry.
Let me know recorded SH2 binding enrichment for AIDVGYRLIDC [AKR1B1_Y40_H42L] , thanks.
0.7

----------
Measured SH2 binding enrichment accompanies every entry in the list below.
- Study System: SHP2-C SH2
- Assay Details: SH2 binding enrichment of the phosphorylated peptide, bacterial display (enrichment ratio); higher = better substrate or ligand; peptides without Tyr show the background
// no unit string in output, number only

Example entries begin here.
Biosequence | Observed Result
KIKLNYTLPQD [NRAP_Y523_N519I] | 0.751
TRLAQYDSNSK [BMX_Y216_S212R] | 0.829

Specify measured SH2 binding enrichment for GYSRHCEDGYP [CTNND1_Y217_Y217C] .
0.563

Fill in SH2 binding enrichment for record TFFQMYDKGLV [IARS2_Y231_YF]
0.7

Please look at this sequence and report its SH2 binding enrichment: DSEIRYLSADS [TTF1_Y476]
0.914

Look up and report measured SH2 binding enrichment for this entry: PQIVKYRPDCI [LDHB_Y128_S129R]
0.817

Look up and state reported SH2 binding enrichment for TVLGEYASPKG [CYP24A1_Y407_L409S]
0.793

State its SH2 binding enrichment: GYRPVYSEDEQ [CHST6_Y362]
0.669

----------
- Test system: c-Src
- Assay Details: phosphorylation enrichment, bacterial display (enrichment ratio); higher = better substrate or ligand; peptides without Tyr show the background
Assign 1.0 whenever phosphorylation enrichment does not fall below 0.5; assign 0.0 whenever it does.

Some solved cases for reference:
Biosequence | Study System | Assigned Label
HKLSFCEFDFE [BTK_Y40_Y40C_YF] | c-Src | 1.0
YTFNSYYMHWV [IGHV1-46_Y51_T49N] | c-Src | 1.0

Decide: phosphorylation enrichment of LGQRIYQYIRS [DYRK1B_Y271_Q275R] >= 0.5?
1.0

Please indicate if the recorded phosphorylation enrichment for SIKNKYVTALF [KCNH2_Y611_D609N_YF] meets or exceeds 0.5.
0.0

Reported phosphorylation enrichment at or above 0.5? VAVTKYCKEEL [ATP7B_Y1078]
0.0

Please tell me: is the sequence ATPKGYERDAS [OTC_Y223_P225R] at or over 0.5 in terms of phosphorylation enrichment?
0.0

# bool: phosphorylation enrichment of EQRRAYLEGTC [HLA-C_Y183_L180R] >= 0.5
0.0

----------
- Study System: c-Src SH2
- Assay Details: SH2 binding enrichment of the phosphorylated peptide, bacterial display (enrichment ratio); higher = better substrate or ligand; peptides without Tyr show the background
Listed here: items and their measured SH2 binding enrichment.
# answer = number (no unit)

Use the examples below as a reference point.
Biosequence | Observed Result
MYDKEYYSVHN [MET_Y1234] | 0.622
LRSELYSLIAR [PHIP_Y16_F17S] | 1.89
YKRAVYCIIGR [NUP93_Y391] | 0.937

Identify measured SH2 binding enrichment associated with FRASFYRRGDR [LTK_Y677_YF]
0.379

Provide one value: measured SH2 binding enrichment of KLMTEYKRRKQ [ARFGEF3_Y2029_K2031R]
0.342

Specify reported SH2 binding enrichment for the sequence shown: RSRSSYTHGLN [MYCT1_Y116]
0.593

For MTFQNYRQALF [FAM20C_Y279_G280R] , write its SH2 binding enrichment.
0.51

Supply measured SH2 binding enrichment of GLGGGCGGASG [KRT8_Y54_Y54C] in your reply.
0.525

Output measured SH2 binding enrichment for this item: KAESWYQTKFE [KRT75_Y342_E337K_YF]
0.991

Identify measured SH2 binding enrichment associated with AGQKDYDRLRP [RAC3_Y64_E62K]
0.63

Find the measured SH2 binding enrichment of CLAKMYYSAVE [CP_Y539_D544E] and report it.
2.57

----------
- Study System: c-Src SH2
- Assay Details: SH2 binding enrichment of the phosphorylated peptide, bacterial display (enrichment ratio); higher = better substrate or ligand; peptides without Tyr show the background
Quick list: SH2 binding enrichment per entry.
I only need the number, thanks.

For orientation, consider the following solved cases.
Biosequence | Study System | SH2 binding enrichment
VEDDMYRKTCT [XPA_Y257_L252V] | c-Src SH2 | 0.494
KTVQDYLKKFY [MMP8_Y36_E38K] | c-Src SH2 | 0.438
PIPIKYKAMKK [MYD88_Y257_L252P] | c-Src SH2 | 0.822
RHLLRYLSWTV [CLCNKB_Y93_S88R] | c-Src SH2 | 1.02
FLAVGYHQPHI [IDS_Y225_K227Q] | c-Src SH2 | 1.55

Now for another entry.
Give SH2 binding enrichment for VERIGYDFIPT [CBS_Y308_G305R]
3.49
